Each recorded value in this set is attributed to ChEMBL document CHEMBL1201862.

# Test system: SK-MEL-28
# measurement-notes: NCI tumour cell line growth inhibition, 48 h
Active and inactive are the calls of the source. Cut-off read from the data, not from the text of the source: active = GI50 up to about 1.1 µM and inactive = higher.
The entries below are paired with their reported GI50.

// known answers, use as guide
>>> print(df.to_string())
                                   compound       measured_value
0  O=C1CC(C(=O)O)Cc2c(Br)ccc(O)c21 (stereo not drawn)  > 100 µM (inactive)
1  c1ccc2/c3[nH]/c(c2c1)=N\c1ccc(cc1)-c1nc2ccc(cc2o1)/N=c1/[nH]/c(c2ccccc12)=N/c1ccc2nc(oc2c1)-c1ccc(cc1)\N=3   24.5 µM (inactive)

# evaluate next
-- ask Entry under review: O=C(CC1(O)C(=O)Nc2ccccc21)c1ccco1 (stereo not drawn) . Reported GI50?
-- reply > 100 µM (inactive)
